run_description: Antiproliferative activity against human DLD1 cells after 72 hrs by Celltiter-Glo luminescent cell viability assay
Assay type: functional, cell-based
assay_conditions: DLD-1, 72 h
Non-standard residues stand in square brackets, D forms with d. Residues, ends and D or L forms follow the SMILES beside them. ξ: configuration not given here. Ac6c = NC1(C(=O)O)CCCCC1; Ac5c = NC1(C(=O)O)CCCC1; ξOrn = NCCCC(N)C(=O)O
readout: IC50

Ask: For the compound shown here, CC(=O)NCC(=O)N[C@@H](Cc1ccccc1)C(=O)NC1(C(=O)NCC(=O)NC2(C(=O)NC(CCCN)C(=O)NC3(C(=O)NCC(=O)NC4(C(=O)N[C@@H](Cc5ccccc5)C(=O)NC5(C(=O)NCC(=O)NC6(C(=O)NCC(=O)NC(CCCN)C(=O)NC7(C(=O)NC(CCCN)C(=O)NC(CCCN)C(=O)NC(CCCN)C(=O)NC(CCCN)C(N)=O)CCCCC7)CCCCC6)CCCCC5)CCCCC4)CCCCC3)CCCCC2)CCCCC1 (stereo partly drawn) (Ac-GF[Ac6c]G[Ac6c][ξOrn][Ac6c]G[Ac6c]F[Ac6c]G[Ac6c]G[ξOrn][Ac6c][ξOrn][ξOrn][ξOrn][ξOrn]-NH2) , give the reported IC50.
Result: 6.2 µM

Ask: CC(=O)NCC(=O)N[C@H](Cc1ccccc1)C(=O)NC1(C(=O)NCC(=O)N2C(C(=O)N[C@@H](CCCCN)C(=O)NC3(C(=O)NCC(=O)N4C(C(=O)N[C@@H](Cc5ccccc5)C(=O)NC5(C(=O)NCC(=O)N6C(C(=O)NCC(=O)N[C@@H](CCCCN)C(=O)N7C(C(=O)N[C@H](CCCCN)C(=O)N[C@H](CCCCN)C(=O)N[C@H](CCCCN)C(=O)N[C@H](CCCCN)C(N)=O)CC8CCCCC87)CC7CCCCC76)CCCCC5)CC5CCCCC54)CCCCC3)CC3CCCCC32)CCCCC1 (stereo in doubt) , same question.
Result: > 7.5 µM

Ask: CC(=O)NCC(=O)N[C@@H](Cc1ccccc1)C(=O)NC1(C(=O)NCC(=O)NC2(C(=O)N[C@@H](CCCCN)C(=O)NC3(C(=O)NCC(=O)NC4(C(=O)N[C@@H](Cc5ccccc5)C(=O)NC5(C(=O)NCC(=O)NC6(C(=O)NCC(=O)N[C@@H](CCCCN)C(=O)NC7(C(=O)N[C@@H](CCCCN)C(=O)N[C@@H](CCCCN)C(=O)N[C@@H](CCCCN)C(=O)N[C@@H](CCCCN)C(N)=O)CCCC7)CCCCC6)CCCC5)CCCCC4)CCCC3)CCCCC2)CCCC1 (Ac-GF[Ac5c]G[Ac6c]K[Ac5c]G[Ac6c]F[Ac5c]G[Ac6c]GK[Ac5c]KKKK-NH2) , same question.
Result: > 7.5 µM

---

run_description: Antiproliferative activity against human DLD1 cells after 72 hrs by Celltiter-Glo luminescent cell viability assay
Type: functional, cell-based
assay_conditions: DLD-1, 72 h
Non-standard residues stand in square brackets, D forms with d. Residues, ends and D or L forms follow the SMILES beside them. Ac6c = NC1(C(=O)O)CCCCC1
readout: IC50

Ask: For the compound shown here, CC(=O)N[C@@H](CCCCN)C(=O)N[C@@H](CCCCN)C(=O)N[C@@H](CCCCN)C(=O)N[C@@H](CCCCN)C(=O)NCC(=O)N[C@@H](Cc1ccccc1)C(=O)NC1(C(=O)NCC(=O)NC2(C(=O)N[C@@H](CCCCN)C(=O)NC3(C(=O)NCC(=O)NC4(C(=O)N[C@@H](Cc5ccccc5)C(=O)NC5(C(=O)NCC(=O)NC6(C(=O)NCC(=O)N[C@@H](CCCCN)C(=O)NC7(C(N)=O)CCCCC7)CCCCC6)CCCCC5)CCCCC4)CCCCC3)CCCCC2)CCCCC1 (Ac-KKKKGF[Ac6c]G[Ac6c]K[Ac6c]G[Ac6c]F[Ac6c]G[Ac6c]GK[Ac6c]-NH2) , give the reported IC50.
Result: > 7.5 µM

---

Test system: Burkholderia pseudomallei
run_description: Antibacterial activity against Burkholderia pseudomallei AHS 1 NCTC 8016 by two fold serial dilution method
Type: functional
Non-standard residues stand in square brackets, D forms with d. Residues, ends and D or L forms follow the SMILES beside them. ξ: configuration not given here. Ac6c = NC1(C(=O)O)CCCCC1; ξDap = NCC(N)C(=O)O
readout: MIC

Ask: For the compound shown here, CC(=O)NCC(=O)N[C@@H](Cc1ccccc1)C(=O)NC1(C(=O)NCC(=O)NC2(C(=O)NC(CN)C(=O)NC3(C(=O)NCC(=O)NC4(C(=O)N[C@@H](Cc5ccccc5)C(=O)NC5(C(=O)NCC(=O)NC6(C(=O)NCC(=O)NC(CN)C(=O)NC7(C(=O)NC(CN)C(=O)NC(CN)C(=O)NC(CN)C(=O)NC(CN)C(N)=O)CCCCC7)CCCCC6)CCCCC5)CCCCC4)CCCCC3)CCCCC2)CCCCC1 (stereo partly specified) (Ac-GF[Ac6c]G[Ac6c][ξDap][Ac6c]G[Ac6c]F[Ac6c]G[Ac6c]G[ξDap][Ac6c][ξDap][ξDap][ξDap][ξDap]-NH2) , give the reported MIC.
Result: > 49 µM

---

run_description: Antibacterial activity against Bacillus anthracis Ames NR-3838 by two fold serial dilution method
Assay type: functional, Bacillus anthracis str. Ames
Non-standard residues stand in square brackets, D forms with d. Residues, ends and D or L forms follow the SMILES beside them. ξ: configuration not given here. Ac6c = NC1(C(=O)O)CCCCC1; ξOrn = NCCCC(N)C(=O)O; ξDap = NCC(N)C(=O)O
Record form. Attribute: MIC. Fill in for each entry.
# output: bare number, implied unit µM

Ask: For the compound shown here, CC(=O)NCC(=O)N[C@@H](Cc1ccccc1)C(=O)NC1(C(=O)NCC(=O)NC2(C(=O)NC(CCCN)C(=O)NC3(C(=O)NCC(=O)NC4(C(=O)N[C@@H](Cc5ccccc5)C(=O)NC5(C(=O)NCC(=O)NC6(C(=O)NCC(=O)NC(CCCN)C(=O)NC7(C(=O)NC(CCCN)C(=O)NC(CCCN)C(=O)NC(CCCN)C(=O)NC(CCCN)C(N)=O)CCCCC7)CCCCC6)CCCCC5)CCCCC4)CCCCC3)CCCCC2)CCCCC1 (some centres not stated) (Ac-GF[Ac6c]G[Ac6c][ξOrn][Ac6c]G[Ac6c]F[Ac6c]G[Ac6c]G[ξOrn][Ac6c][ξOrn][ξOrn][ξOrn][ξOrn]-NH2) , give the reported MIC.
Result: 2.84

Ask: CC(=O)NCC(=O)N[C@@H](Cc1ccccc1)C(=O)NC1(C(=O)NCC(=O)NC2(C(=O)NC(CN)C(=O)NC3(C(=O)NCC(=O)NC4(C(=O)N[C@@H](Cc5ccccc5)C(=O)NC5(C(=O)NCC(=O)NC6(C(=O)NCC(=O)NC(CN)C(=O)NC7(C(=O)NC(CN)C(=O)NC(CN)C(=O)NC(CN)C(=O)NC(CN)C(N)=O)CCCCC7)CCCCC6)CCCCC5)CCCCC4)CCCCC3)CCCCC2)CCCCC1 (some centres not stated) (Ac-GF[Ac6c]G[Ac6c][ξDap][Ac6c]G[Ac6c]F[Ac6c]G[Ac6c]G[ξDap][Ac6c][ξDap][ξDap][ξDap][ξDap]-NH2) , same question.
Result: 6.16

---

System: NCI-H69
run_description: Antiproliferative activity against human NCI-H69 cells after 72 hrs by Celltiter-Glo luminescent cell viability assay
Type: functional, cell-based
assay_conditions: NCI-H69, 72 h
pIC50: −log10 of the molar value. Non-standard residues stand in square brackets, D forms with d. Residues, ends and D or L forms follow the SMILES beside them. Ac5c = NC1(C(=O)O)CCCC1
readout: pIC50

Ask: For the compound shown here, CC(=O)NCC(=O)N[C@@H](Cc1ccccc1)C(=O)NC1(C(=O)NCC(=O)NC2(C(=O)N[C@@H](CCCCN)C(=O)NC3(C(=O)NCC(=O)NC4(C(=O)N[C@@H](Cc5ccccc5)C(=O)NC5(C(=O)NCC(=O)NC6(C(=O)NCC(=O)N[C@@H](CCCCN)C(=O)NC7(C(=O)N[C@@H](CCCCN)C(=O)N[C@@H](CCCCN)C(=O)N[C@@H](CCCCN)C(=O)N[C@@H](CCCCN)C(N)=O)CCCC7)CCCC6)CCCC5)CCCC4)CCCC3)CCCC2)CCCC1 (Ac-GF[Ac5c]G[Ac5c]K[Ac5c]G[Ac5c]F[Ac5c]G[Ac5c]GK[Ac5c]KKKK-NH2) , give the reported pIC50.
Result: < 5.12

---

System: Staphylococcus aureus
run_description: Antibacterial activity against Staphylococcus aureus Seattle 1945 ATCC 25923 by two fold serial dilution method
Assay type: functional
Non-standard residues stand in square brackets, D forms with d. Residues, ends and D or L forms follow the SMILES beside them. ξ: configuration not given here. Ac6c = NC1(C(=O)O)CCCCC1; Ac5c = NC1(C(=O)O)CCCC1; ξDab = NCCC(N)C(=O)O; ξDap = NCC(N)C(=O)O
readout: MIC (µM)
# output: bare number, implied unit µM

Ask: Kindly state the measured MIC obtained for CC(=O)NCC(=O)N[C@@H](Cc1ccccc1)C(=O)NC1(C(=O)NCC(=O)NC2(C(=O)NC(CN)C(=O)NC3(C(=O)NCC(=O)NC4(C(=O)N[C@@H](Cc5ccccc5)C(=O)NC5(C(=O)NCC(=O)NC6(C(=O)NCC(=O)NC(CN)C(=O)NC7(C(=O)NC(CN)C(=O)NC(CN)C(=O)NC(CN)C(=O)NC(CN)C(N)=O)CCCCC7)CCCCC6)CCCCC5)CCCCC4)CCCCC3)CCCCC2)CCCCC1 (some centres undefined) (Ac-GF[Ac6c]G[Ac6c][ξDap][Ac6c]G[Ac6c]F[Ac6c]G[Ac6c]G[ξDap][Ac6c][ξDap][ξDap][ξDap][ξDap]-NH2) with Staphylococcus aureus.
Result: 6.16

Ask: CC(=O)NCC(=O)N[C@@H](Cc1ccccc1)C(=O)NC1(C(=O)NCC(=O)NC2(C(=O)NC(CCN)C(=O)NC3(C(=O)NCC(=O)NC4(C(=O)N[C@@H](Cc5ccccc5)C(=O)NC5(C(=O)NCC(=O)NC6(C(=O)NCC(=O)NC(CCN)C(=O)NC7(C(=O)NC(CCN)C(=O)NC(CCN)C(=O)NC(CCN)C(=O)NC(CCN)C(N)=O)CCCCC7)CCCCC6)CCCCC5)CCCCC4)CCCCC3)CCCCC2)CCCCC1 (some centres undefined) (Ac-GF[Ac6c]G[Ac6c][ξDab][Ac6c]G[Ac6c]F[Ac6c]G[Ac6c]G[ξDab][Ac6c][ξDab][ξDab][ξDab][ξDab]-NH2) , same question.
Result: 2.96

Ask: CC(=O)NCC(=O)N[C@@H](Cc1ccccc1)C(=O)NC1(C(=O)NCC(=O)NC2(C(=O)N[C@@H](CCCCN)C(=O)NC3(C(=O)NCC(=O)NC4(C(=O)N[C@@H](Cc5ccccc5)C(=O)NC5(C(=O)NCC(=O)NC6(C(=O)NCC(=O)N[C@@H](CCCCN)C(=O)NC7(C(=O)N[C@@H](CCCCN)C(=O)N[C@@H](CCCCN)C(=O)N[C@@H](CCCCN)C(=O)N[C@@H](CCCCN)C(N)=O)CCCC7)CCCCC6)CCCC5)CCCCC4)CCCC3)CCCCC2)CCCC1 (Ac-GF[Ac5c]G[Ac6c]K[Ac5c]G[Ac6c]F[Ac5c]G[Ac6c]GK[Ac5c]KKKK-NH2) , same question.
Result: 44.5
